The measurements presented in this section are drawn from patent US6875741.

molecular target: T1, Soluble IGF-1R (R&D Systems, Cat. # 391-GR) (UniProt P08069 31-935, limits assumed); assay: phage ELISA ratios compared
T1 construct: extracellular domain; bought; also called sIGF-1R
READOUT TYPE: IGF-1R/IR ratio comparison
Give the figure by itself; no unit, no explanation.

# input Given the entry AVRATRFDEAFYDWFVRQISDGQGNK [H2CA-4-F6-IGFR] , report its measured IGF-1R/IR ratio comparison.
# output 6.4

# input Given the entry GFREGSFYDWFQAQVT [E4Dα-2-D11-IR] , report its measured IGF-1R/IR ratio comparison.
# output 3.4

# input Given the entry CCLLCRFQQNFYDWFVCQGISRLRPL [H2CA-2-B4-IGFR] , report its measured IGF-1R/IR ratio comparison.
# output 3.6

# input Given the entry EAASLGSQDRNFYDWFVRQVV [A6S-2-D11-IR] , report its measured IGF-1R/IR ratio comparison.
# output 2.8

# input Given the entry LQPCSGFYECIERLIGVKLSG [20E2Bβ-4-G7-IR] , report its measured IGF-1R/IR ratio comparison.
# output 15.8

# input Given the entry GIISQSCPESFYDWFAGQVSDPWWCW [H2CA-4-G9-IGFR] , report its measured IGF-1R/IR ratio comparison.
# output 16

# input Given the entry FFYRCLSRLLGGQLGSRLGLSCIGD [20C-3-E4-IGFR] , report its measured IGF-1R/IR ratio comparison.
# output 6

# input Given the entry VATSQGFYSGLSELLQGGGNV [20E2B-3-E12-IGFR] , report its measured IGF-1R/IR ratio comparison.
# output 7.3

# input Given the entry VEGRGLFYDLLRQLLARRQNG [20E2B-3-C6-IGFR] , report its measured IGF-1R/IR ratio comparison.
# output 14.8

# input Given the entry RCGRELYHSTFYDWFDRQVAGRTCPS [H2CA-1-A7-IGFR] , report its measured IGF-1R/IR ratio comparison.
# output 3.7

# input Given the entry YSCGDGFYSLLSDLLGGQFRC [20E2B-4-H12-IGFR] , report its measured IGF-1R/IR ratio comparison.
# output 12.8

# input Given the entry VGRASGFPENFYDWFGRQLSLQSGEQ [H2CA-4-H6-IGFR] , report its measured IGF-1R/IR ratio comparison.
# output 14.6

# input Given the entry SSIGGGFHENFYDWFSRQLSQSPPLK [H2CA-4-F7-IGFR] , report its measured IGF-1R/IR ratio comparison.
# output 4.1

# input Given the entry TLRSPTFYDWLEMVLTHGQGG [20E2B-1-A8-IGFR] , report its measured IGF-1R/IR ratio comparison.
# output 5
